Recorded values, source the RNAGym collection of RNA variant scans (doi:10.1038/s41586-018-0170-7).

B1: tRNA (parent)
chain: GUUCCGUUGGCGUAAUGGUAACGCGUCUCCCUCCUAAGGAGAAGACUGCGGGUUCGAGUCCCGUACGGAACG

- Variants of: B1
- experimentNotes: yeast fitness, log relative to wild type (ln ratio); higher = fitter; tRNA-Arg(CCU), competitive growth, 37 C, 1 M NaCl
# binning rule on yeast fitness (ln): low band: < -0.3; middle band: ≥ -0.3 and < -0.1; high band: ≥ -0.1

>  <variantIdentifier>
A43C A70U

>  <cat>
high band

$$$$
>  <variantIdentifier>
U2C C46U A69G A70U C71U

>  <cat>
middle band

$$$$
>  <variantIdentifier>
G1A U2C G6U A43C C46U C66A A70U C71U

>  <cat>
low band

$$$$
>  <variantIdentifier>
U2G G6A A43C C66A A70U C71U

>  <cat>
low band

$$$$
>  <variantIdentifier>
U2C A43C C66U

>  <cat>
high band

$$$$
>  <variantIdentifier>
G1A U2C A43C C46U A70G

>  <cat>
high band

$$$$
>  <variantIdentifier>
G1A G6U A43C C46U C66U

>  <cat>
middle band

$$$$
>  <variantIdentifier>
G1A U2C G6U A43C C46U A70G C71U

>  <cat>
low band

$$$$
>  <variantIdentifier>
G1A U2G G6U A43C

>  <cat>
middle band

$$$$
>  <variantIdentifier>
G1A U2C A43C C66U A70G C71U

>  <cat>
middle band

$$$$
>  <variantIdentifier>
G1A U2C G6U C27U C46U A69G C71U

>  <cat>
middle band

$$$$
>  <variantIdentifier>
U2G A43C C46U A69G A70U

>  <cat>
high band

$$$$
>  <variantIdentifier>
G6U C27U C46U A69G A70G

>  <cat>
middle band

$$$$
>  <variantIdentifier>
U2G G6A C66U A69G A70U

>  <cat>
high band

$$$$
>  <variantIdentifier>
U2C C66U A70G

>  <cat>
high band

$$$$
>  <variantIdentifier>
G1A G6A C27U A69G A70G

>  <cat>
low band

$$$$
>  <variantIdentifier>
U2C G6A C27U A43C C71U

>  <cat>
middle band

$$$$
>  <variantIdentifier>
G1A U2C A43C C46U C66U A69G A70U

>  <cat>
middle band

$$$$
>  <variantIdentifier>
U2C A43C C66A A70U C71U

>  <cat>
middle band

$$$$
>  <variantIdentifier>
G1A U2G C27U C66U A70G C71U

>  <cat>
low band

$$$$
>  <variantIdentifier>
U2G G6U A43C A69G A70U

>  <cat>
middle band

$$$$
>  <variantIdentifier>
G1A U2G G6A C66A A70U C71U

>  <cat>
middle band

$$$$
>  <variantIdentifier>
C27U C46U A69G

>  <cat>
high band

$$$$
>  <variantIdentifier>
U2C G6U A69G C71U

>  <cat>
high band

$$$$
>  <variantIdentifier>
G1A U2G C66A C71U

>  <cat>
high band

$$$$
>  <variantIdentifier>
G1A G6U C27U A43C A69G A70G

>  <cat>
low band

$$$$
>  <variantIdentifier>
C27U C46U A69G A70G

>  <cat>
high band

$$$$
>  <variantIdentifier>
C27U A43C C46U C66U A70U

>  <cat>
middle band

$$$$
>  <variantIdentifier>
G1A U2C G6U C27U C46U C66A A70U

>  <cat>
high band

$$$$
>  <variantIdentifier>
G1A U2G C27U C46U A70G C71U

>  <cat>
low band

$$$$
>  <variantIdentifier>
G1A G6U A69G C71U

>  <cat>
middle band

$$$$
>  <variantIdentifier>
G1A U2G G6U C27U A43C C46U A70G C71U

>  <cat>
low band

$$$$
>  <variantIdentifier>
G1A A43C A70U C71U

>  <cat>
low band

$$$$
>  <variantIdentifier>
G1A G6U C27U A43C C46U C66U A70G C71U

>  <cat>
low band

$$$$
>  <variantIdentifier>
U2C G6U A43C A70U

>  <cat>
middle band

$$$$
>  <variantIdentifier>
G1A C46U A69G

>  <cat>
middle band

$$$$
>  <variantIdentifier>
A43C C66A A69G C71U

>  <cat>
middle band

$$$$
>  <variantIdentifier>
G1A G6U A43C C46U C66A A69G C71U

>  <cat>
middle band

$$$$
>  <variantIdentifier>
G6A A43C C66U A70G C71U

>  <cat>
middle band

$$$$
